Just for reference, the supplement of paper PMC9112550 is where these values come from.

system: Escherichia coli TOP10; experiment: shrunken log2 fold change of peptide-encoding DNA abundance (4.5 h post-induction vs induction); higher = less antimicrobial activity (less host growth inhibition); conditions: time post-induction: 4.5 h; library: site-saturation at positions 5, 18, 19, 20
Binning of shrunken log2 fold change into classes: Low: < -0.2; Medium: ≥ -0.2 and < 0.04; High: ≥ 0.04

{"Seq string": "RRIRYRPPRLPRPRPRPEEIPRP", "Group label": "Medium"}
{"Seq string": "RRIRQRPPRLPRPRPRPLTHPRP", "Group label": "High"}
{"Seq string": "RRIRMRPPRLPRPRPRPKMQPRP", "Group label": "High"}
{"Seq string": "RRIRNRPPRLPRPRPRPWNAPRP", "Group label": "Low"}
{"Seq string": "RRIRCRPPRLPRPRPRPANYPRP", "Group label": "Low"}
{"Seq string": "RRIRCRPPRLPRPRPRPKRYPRP", "Group label": "Medium"}
{"Seq string": "RRIRSRPPRLPRPRPRPFCLPRP", "Group label": "Low"}
{"Seq string": "RRIRYRPPRLPRPRPRPTQNPRP", "Group label": "High"}
{"Seq string": "RRIRVRPPRLPRPRPRPCLSPRP", "Group label": "Medium"}
{"Seq string": "RRIRNRPPRLPRPRPRPLPFPRP", "Group label": "Medium"}
{"Seq string": "RRIRQRPPRLPRPRPRPLGEPRP", "Group label": "High"}
{"Seq string": "RRIRNRPPRLPRPRPRPAIKPRP", "Group label": "Low"}
{"Seq string": "RRIRERPPRLPRPRPRPTAEPRP", "Group label": "High"}
{"Seq string": "RRIRYRPPRLPRPRPRPVVDPRP", "Group label": "Medium"}
{"Seq string": "RRIRTRPPRLPRPRPRPPAMPRP", "Group label": "High"}
{"Seq string": "RRIRHRPPRLPRPRPRPFAYPRP", "Group label": "Medium"}
{"Seq string": "RRIRERPPRLPRPRPRPDERPRP", "Group label": "High"}
{"Seq string": "RRIRPRPPRLPRPRPRPEQFPRP", "Group label": "Medium"}
{"Seq string": "RRIRQRPPRLPRPRPRPISPPRP", "Group label": "Medium"}
{"Seq string": "RRIRFRPPRLPRPRPRPVKMPRP", "Group label": "Medium"}
{"Seq string": "RRIRQRPPRLPRPRPRPDCLPRP", "Group label": "Low"}
{"Seq string": "RRIRARPPRLPRPRPRPWQVPRP", "Group label": "High"}
{"Seq string": "RRIRERPPRLPRPRPRPFGHPRP", "Group label": "Low"}
{"Seq string": "RRIRYRPPRLPRPRPRPNMIPRP", "Group label": "Low"}
{"Seq string": "RRIRLRPPRLPRPRPRPNRNPRP", "Group label": "Low"}
{"Seq string": "RRIRQRPPRLPRPRPRPTKAPRP", "Group label": "High"}
{"Seq string": "RRIRSRPPRLPRPRPRPSVCPRP", "Group label": "High"}
{"Seq string": "RRIRFRPPRLPRPRPRPIQNPRP", "Group label": "Low"}
{"Seq string": "RRIRYRPPRLPRPRPRPGCYPRP", "Group label": "Low"}
{"Seq string": "RRIRCRPPRLPRPRPRPTTWPRP", "Group label": "Medium"}
{"Seq string": "RRIRGRPPRLPRPRPRPLRNPRP", "Group label": "High"}
{"Seq string": "RRIRHRPPRLPRPRPRPIFMPRP", "Group label": "Medium"}

====

system: Escherichia coli TOP10; assay: shrunken log2 fold change of peptide-encoding DNA abundance (4.5 h post-induction vs induction); higher = less antimicrobial activity (less host growth inhibition); conditions: time post-induction: 4.5 h; library: site-saturation at positions 5, 18, 19, 20

{"Seq string": "RRIRSRPPRLPRPRPRPDPAPRP", "shrunken log2 fold change": 0.45}
{"Seq string": "RRIRHRPPRLPRPRPRPLDPPRP", "shrunken log2 fold change": -0.331}
{"Seq string": "RRIRLRPPRLPRPRPRPYMYPRP", "shrunken log2 fold change": -0.759}
{"Seq string": "RRIRQRPPRLPRPRPRPEVYPRP", "shrunken log2 fold change": -0.0137}
{"Seq string": "RRIRDRPPRLPRPRPRPISFPRP", "shrunken log2 fold change": -0.0563}
{"Seq string": "RRIRDRPPRLPRPRPRPSYVPRP", "shrunken log2 fold change": -0.206}
{"Seq string": "RRIRLRPPRLPRPRPRPLGAPRP", "shrunken log2 fold change": 0.387}
{"Seq string": "RRIRERPPRLPRPRPRPLCHPRP", "shrunken log2 fold change": -0.0201}
{"Seq string": "RRIRCRPPRLPRPRPRPPYIPRP", "shrunken log2 fold change": -0.305}
{"Seq string": "RRIRPRPPRLPRPRPRPSLEPRP", "shrunken log2 fold change": 0.0508}
{"Seq string": "RRIRQRPPRLPRPRPRPKGNPRP", "shrunken log2 fold change": -0.365}
{"Seq string": "RRIRPRPPRLPRPRPRPWCSPRP", "shrunken log2 fold change": -0.201}
{"Seq string": "RRIRDRPPRLPRPRPRPPASPRP", "shrunken log2 fold change": 0.513}
{"Seq string": "RRIRPRPPRLPRPRPRPRVIPRP", "shrunken log2 fold change": 0.033}
{"Seq string": "RRIRTRPPRLPRPRPRPFHKPRP", "shrunken log2 fold change": 0.0244}
{"Seq string": "RRIRIRPPRLPRPRPRPPYEPRP", "shrunken log2 fold change": -0.315}
{"Seq string": "RRIRHRPPRLPRPRPRPPIIPRP", "shrunken log2 fold change": -0.183}
{"Seq string": "RRIRGRPPRLPRPRPRPCYTPRP", "shrunken log2 fold change": 0.498}
{"Seq string": "RRIRHRPPRLPRPRPRPCCVPRP", "shrunken log2 fold change": -0.193}
{"Seq string": "RRIRKRPPRLPRPRPRPCTRPRP", "shrunken log2 fold change": -0.103}
{"Seq string": "RRIRIRPPRLPRPRPRPDCTPRP", "shrunken log2 fold change": 0.0385}
{"Seq string": "RRIRPRPPRLPRPRPRPKRIPRP", "shrunken log2 fold change": -0.155}
{"Seq string": "RRIRGRPPRLPRPRPRPLFWPRP", "shrunken log2 fold change": 0.544}
{"Seq string": "RRIRCRPPRLPRPRPRPFACPRP", "shrunken log2 fold change": -0.22}
{"Seq string": "RRIRVRPPRLPRPRPRPICAPRP", "shrunken log2 fold change": -0.167}
{"Seq string": "RRIRYRPPRLPRPRPRPFVEPRP", "shrunken log2 fold change": -1.17}
{"Seq string": "RRIRDRPPRLPRPRPRPSVFPRP", "shrunken log2 fold change": 0.423}
{"Seq string": "RRIRPRPPRLPRPRPRPTMTPRP", "shrunken log2 fold change": 0.0633}
{"Seq string": "RRIRRRPPRLPRPRPRPFCWPRP", "shrunken log2 fold change": 0.45}
{"Seq string": "RRIRTRPPRLPRPRPRPPMVPRP", "shrunken log2 fold change": 0.152}
{"Seq string": "RRIRGRPPRLPRPRPRPGIAPRP", "shrunken log2 fold change": 0.864}
{"Seq string": "RRIRLRPPRLPRPRPRPQYAPRP", "shrunken log2 fold change": -0.0369}

====

tested on: Escherichia coli TOP10; test: shrunken log2 fold change of peptide-encoding DNA abundance (4.5 h post-induction vs induction); higher = less antimicrobial activity (less host growth inhibition); conditions: time post-induction: 4.5 h; library: site-saturation at positions 5, 18, 19, 20;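 further: peptides expressed intracellularly from a pBAD plasmid library in pooled LB shake-flask culture, induced with 0.3% L-arabinose, DNA abundance read by NGS, three biological replicates, DESeq2 with apeglm shrinkage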
Use TRUE when the recorded shrunken log2 fold change is no lower than 0.04; use FALSE when it is lower.

{"Seq string": "RRIRMRPPRLPRPRPRPARLPRP", "Target desc": "Escherichia coli TOP10", "Group label": "TRUE"}
{"Seq string": "RRIRTRPPRLPRPRPRPLLWPRP", "Target desc": "Escherichia coli TOP10", "Group label": "TRUE"}
{"Seq string": "RRIRHRPPRLPRPRPRPDHHPRP", "Target desc": "Escherichia coli TOP10", "Group label": "TRUE"}
{"Seq string": "RRIRGRPPRLPRPRPRPGPRPRP", "Target desc": "Escherichia coli TOP10", "Group label": "TRUE"}
{"Seq string": "RRIRYRPPRLPRPRPRPAEQPRP", "Target desc": "Escherichia coli TOP10", "Group label": "FALSE"}
{"Seq string": "RRIRPRPPRLPRPRPRPRFCPRP", "Target desc": "Escherichia coli TOP10", "Group label": "TRUE"}
{"Seq string": "RRIRIRPPRLPRPRPRPDMLPRP", "Target desc": "Escherichia coli TOP10", "Group label": "FALSE"}
{"Seq string": "RRIRWRPPRLPRPRPRPIDPPRP", "Target desc": "Escherichia coli TOP10", "Group label": "FALSE"}
{"Seq string": "RRIRWRPPRLPRPRPRPKDVPRP", "Target desc": "Escherichia coli TOP10", "Group label": "FALSE"}
{"Seq string": "RRIRMRPPRLPRPRPRPDETPRP", "Target desc": "Escherichia coli TOP10", "Group label": "TRUE"}
{"Seq string": "RRIRHRPPRLPRPRPRPIISPRP", "Target desc": "Escherichia coli TOP10", "Group label": "FALSE"}
{"Seq string": "RRIRTRPPRLPRPRPRPAEFPRP", "Target desc": "Escherichia coli TOP10", "Group label": "FALSE"}
{"Seq string": "RRIRKRPPRLPRPRPRPWAHPRP", "Target desc": "Escherichia coli TOP10", "Group label": "TRUE"}
{"Seq string": "RRIRFRPPRLPRPRPRPKILPRP", "Target desc": "Escherichia coli TOP10", "Group label": "TRUE"}
{"Seq string": "RRIRKRPPRLPRPRPRPLHDPRP", "Target desc": "Escherichia coli TOP10", "Group label": "TRUE"}
